study-system: Enoyl-(Acyl-carrier-protein) reductase (Streptococcus pneumoniae)
Sequence (Q9FBC5 whole entry): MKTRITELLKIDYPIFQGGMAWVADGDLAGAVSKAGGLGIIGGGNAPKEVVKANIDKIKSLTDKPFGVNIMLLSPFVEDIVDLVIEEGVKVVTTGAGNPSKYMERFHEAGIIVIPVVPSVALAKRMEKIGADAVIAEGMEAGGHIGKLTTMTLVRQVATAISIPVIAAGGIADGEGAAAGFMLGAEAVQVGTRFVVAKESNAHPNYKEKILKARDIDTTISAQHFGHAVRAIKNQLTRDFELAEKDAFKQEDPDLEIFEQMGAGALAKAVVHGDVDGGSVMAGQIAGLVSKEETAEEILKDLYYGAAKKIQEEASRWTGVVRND
test-description: Inhibition of Streptococcus pneumoniae enoyl-ACP reductase FabK
pIC50: −log10 of the molar value.
reported-metric: pIC50

{"smiles-code": "COc1ccc2nc(NC(=O)NCc3nc4ccccc4[nH]3)sc2c1", "reported-metric": "pIC50", "recorded-number": 5.70}
{"smiles-code": "CS(=O)(=O)c1ccc2nc(NC(=O)NCc3nc4ccccc4[nH]3)sc2c1", "reported-metric": "pIC50", "recorded-number": 6.13}
{"smiles-code": "O=C(NCc1nc(-c2ccccc2)c[nH]1)Nc1ncc(Sc2ccccc2)s1", "reported-metric": "pIC50", "recorded-number": 7.43}

---

study-system: Enoyl-(Acyl-carrier-protein) reductase (Streptococcus pneumoniae, UniProt Q9FBC5)
pIC50: −log10 of the molar value.

{"compound": "Oc1cc(Cl)ccc1Oc1ccc(Cl)cc1Cl [TRICLOSAN]", "study-system": "Enoyl-(Acyl-carrier-protein) reductase (Streptococcus pneumoniae, UniProt Q9FBC5)", "comparator": "<", "pIC50": 4.49}
{"compound": "O=C(NCc1nc2ccccc2[nH]1)Nc1nc2ccccc2s1", "study-system": "Enoyl-(Acyl-carrier-protein) reductase (Streptococcus pneumoniae, UniProt Q9FBC5)", "comparator": "=", "pIC50": 5.16}
{"compound": "O=C(Nc1nc2ccccc2s1)OCc1nc2ccccc2[nH]1", "study-system": "Enoyl-(Acyl-carrier-protein) reductase (Streptococcus pneumoniae, UniProt Q9FBC5)", "comparator": "<", "pIC50": 4.49}
{"compound": "CS(=O)(=O)c1ccc2nc(NC(=O)NCc3nc(-c4ccccc4)c[nH]3)sc2c1", "study-system": "Enoyl-(Acyl-carrier-protein) reductase (Streptococcus pneumoniae, UniProt Q9FBC5)", "comparator": "=", "pIC50": 7.06}
{"compound": "O=C(CSc1nc2ccccc2[nH]1)Nc1nc2ccccc2s1", "study-system": "Enoyl-(Acyl-carrier-protein) reductase (Streptococcus pneumoniae, UniProt Q9FBC5)", "comparator": "<", "pIC50": 4.49}
{"compound": "Cc1ccc2nc(NC(=O)NCc3nc4ccccc4[nH]3)sc2c1", "study-system": "Enoyl-(Acyl-carrier-protein) reductase (Streptococcus pneumoniae, UniProt Q9FBC5)", "comparator": "=", "pIC50": 5.59}

---

System: K562
test-description: Cytotoxicity against human K562 cells
Format: functional, cell-based
reported-metric: IC50

{"smiles-code": "O=C(NCc1ncc(-c2ccc(Br)cc2)[nH]1)Nc1ncc(Sc2ccccn2)s1", "study-system": "K562", "result": "> 20 µM"}

---

Quick note: these are pIC50 numbers for system: UniProt Q9FBC5
pIC50: −log10 of the molar value.

{"smiles-code": "O=C(NCc1nc(-c2ccccc2)c[nH]1)Nc1ncc(Sc2ccc(C(=O)O)cc2)s1", "comparator": "=", "pIC50": 7.01}
{"smiles-code": "O=C(NCc1nc(-c2ccccc2)c[nH]1)Nc1ncc(-c2ccccc2)s1", "comparator": "=", "pIC50": 6.42}
{"smiles-code": "CS(=O)(=O)c1ccc2nc(NC(=O)NCc3cccs3)sc2c1", "comparator": "=", "pIC50": 4.52}
{"smiles-code": "CS(=O)(=O)c1ccc2nc(NC(=O)NCc3cccnc3)sc2c1", "comparator": "=", "pIC50": 4.64}
{"smiles-code": "O=C(CSc1nc2ccccc2[nH]1)NCc1nc2ccccc2s1", "comparator": "<", "pIC50": 4.49}
{"smiles-code": "NC(=O)c1ccc(Sc2cnc(NC(=O)NCc3nc(-c4ccccc4)c[nH]3)s2)cc1", "comparator": "=", "pIC50": 7.43}
{"smiles-code": "O=C(NCc1ncc(-c2ccc(Cl)c(Cl)c2)[nH]1)Nc1ncc(Sc2ccccn2)s1", "comparator": "=", "pIC50": 8.43}
{"smiles-code": "N#Cc1ccc2nc(NC(=O)NCc3nc4ccccc4[nH]3)sc2c1", "comparator": "=", "pIC50": 5.35}
{"smiles-code": "O=C(CO/N=C/c1cccc([N+](=O)[O-])c1)Nc1nc2ccccc2s1", "comparator": "=", "pIC50": 5.96}
{"smiles-code": "CS(=O)(=O)c1ccc2nc(NC(=O)NCc3ccc(-c4ccccn4)s3)sc2c1", "comparator": "=", "pIC50": 5.47}
